B1: library; numbered along this chain (parent)
chain: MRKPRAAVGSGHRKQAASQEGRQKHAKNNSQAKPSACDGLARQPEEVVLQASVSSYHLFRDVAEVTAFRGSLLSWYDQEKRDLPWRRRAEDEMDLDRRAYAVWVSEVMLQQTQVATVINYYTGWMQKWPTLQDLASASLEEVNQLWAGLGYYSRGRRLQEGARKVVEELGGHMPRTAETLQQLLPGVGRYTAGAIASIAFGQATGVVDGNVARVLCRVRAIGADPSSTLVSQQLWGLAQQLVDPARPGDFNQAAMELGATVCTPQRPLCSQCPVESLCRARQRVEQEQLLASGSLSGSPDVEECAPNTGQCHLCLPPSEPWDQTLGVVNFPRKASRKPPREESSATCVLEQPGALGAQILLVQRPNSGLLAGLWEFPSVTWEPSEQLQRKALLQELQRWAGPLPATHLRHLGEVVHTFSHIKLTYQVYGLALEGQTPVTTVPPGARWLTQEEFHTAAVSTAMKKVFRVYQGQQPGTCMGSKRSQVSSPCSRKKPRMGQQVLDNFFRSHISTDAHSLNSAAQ

Variants of: B1
Assay: 8OG:A repair function score (normalized; synonymous = 0, nonsense = -1) (normalized log-likelihood score); higher = more repair activity (WT-like);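 also: cells sorted at 72 h after reporter transfection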
Conditions: with 8OG:A DNA repair reporter (GFP) in HEK-293 MUTYH KO cells
Measurement Kind: 8OG:A repair function score
Lab note: record just the number, no unit beside it.

Q: Give the measured 8OG:A repair function score for `Q288V`
Ans: -0.068

Q: // fetch 8OG:A repair function score given entry `S197P`
Ans: -1.3

Q: Identify the reported 8OG:A repair function score for the following entry. `L423V`
Ans: -0.132

Q: Give the value of 8OG:A repair function score reported for the following: `Q498F`
Ans: -0.0629

Q: Let me know recorded 8OG:A repair function score for `P44R` , thanks.
Ans: -0.0646

Q: For `G188E` , write its 8OG:A repair function score.
Ans: -0.866

Q: State its 8OG:A repair function score for this variant: `L145E`
Ans: -0.0292

Q: Return 8OG:A repair function score for the following variant: `Q323C`
Ans: -0.0398

Q: Identify 8OG:A repair function score associated with the variant `L432M`
Ans: -0.284

Q: Kindly indicate its recorded 8OG:A repair function score. Item: `Q386M`
Ans: 0.34

Q: Dear colleague, please send me the reported 8OG:A repair function score for `V458I` when you can.
Ans: -0.0811

Q: Determine its reported 8OG:A repair function score: `W85H`
Ans: -2.53

Q: Please supply the value of reported 8OG:A repair function score for the item `E285L`
Ans: -0.000221

Q: Report 8OG:A repair function score for `V414D`
Ans: -0.769

Q: Answer with the recorded 8OG:A repair function score for the variant listed here: `R389Y`
Ans: -0.0127

Q: # return recorded 8OG:A repair function score for input `E342A`
Ans: -0.0199

Q: For the variant `S276T` , report 8OG:A repair function score.
Ans: 0.0017

Q: Give me measured 8OG:A repair function score, please, for this variant: `D512P`
Ans: -0.0253

Q: Provide measured 8OG:A repair function score value, entry: `Q144G`
Ans: -0.106

Q: Look up 8OG:A repair function score of `S55P` and report it.
Ans: -0.274

Q: Give 8OG:A repair function score for the following variant: `Q50G`
Ans: -0.0798

Q: Using the record for `V117M` , state its measured 8OG:A repair function score.
Ans: -0.226

Q: Give recorded 8OG:A repair function score. `G150L`
Ans: -1.18

Q: Assign 8OG:A repair function score to the following record: `C269V`
Ans: -1.27

Q: Indicate its recorded 8OG:A repair function score; the variant in question is `R332I`
Ans: -0.256

Q: Kindly indicate its recorded 8OG:A repair function score. Item: `C262H`
Ans: -1.1

Q: Given the variant `L215V` , write its reported 8OG:A repair function score.
Ans: -0.573

Q: Note 8OG:A repair function score for the variant shown: `L423C`
Ans: 0.0721

Q: Annotate the variant `H514L` with its measured 8OG:A repair function score.
Ans: -0.0137

Q: Tell me its 8OG:A repair function score given `A445C` as the entry.
Ans: 0.0578

Q: Give the reported 8OG:A repair function score for this variant. `R281N`
Ans: -0.0901

Q: Consider the variant `G372Y` and give its recorded 8OG:A repair function score.
Ans: -0.393

Q: Return value of 8OG:A repair function score for input `V468N` , no commentary.
Ans: -0.262

Q: Read the entry `K80A` and write its reported 8OG:A repair function score.
Ans: -7.55e-05

Q: Look up and report measured 8OG:A repair function score for this entry: `L393R`
Ans: 0.00361

Q: State its 8OG:A repair function score: `D502W`
Ans: -0.0396

Q: Note 8OG:A repair function score for the variant shown: `R86E`
Ans: -2.16

Q: Supply reported 8OG:A repair function score belonging to this variant: `R69N`
Ans: -1.56

Q: Consider the variant `V102T` and give its recorded 8OG:A repair function score.
Ans: -0.0943

Q: Name the recorded 8OG:A repair function score of the variant listed here: `L83D`
Ans: -1.02

Q: Note 8OG:A repair function score for the variant shown: `T440L`
Ans: -0.194
